Value source: patent US20190106460A1

Study Target: T1, βTrCP (tag cleaved and complexed with Skp1) (UniProt Q9Y297 175-605; P63208 1-163)
T1 construct: Protein of the FP assay (0.035 µM); also called Beta Transducin repeat-containing protein; βTrCP/Skp1
T1 sequence (Q9Y297 175-605, chain 1 of 2): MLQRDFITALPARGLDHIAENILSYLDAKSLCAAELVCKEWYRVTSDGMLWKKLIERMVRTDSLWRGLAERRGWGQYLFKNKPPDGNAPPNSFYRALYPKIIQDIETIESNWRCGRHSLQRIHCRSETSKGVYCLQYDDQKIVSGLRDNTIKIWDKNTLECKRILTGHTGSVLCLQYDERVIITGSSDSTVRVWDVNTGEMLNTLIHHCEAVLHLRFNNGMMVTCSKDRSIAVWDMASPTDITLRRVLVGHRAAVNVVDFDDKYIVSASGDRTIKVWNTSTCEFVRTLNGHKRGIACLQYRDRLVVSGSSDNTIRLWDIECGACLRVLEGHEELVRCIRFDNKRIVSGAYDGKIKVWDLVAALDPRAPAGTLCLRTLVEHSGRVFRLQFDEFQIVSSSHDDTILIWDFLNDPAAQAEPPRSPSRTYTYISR
T1 sequence (P63208 whole entry, chain 2 of 2): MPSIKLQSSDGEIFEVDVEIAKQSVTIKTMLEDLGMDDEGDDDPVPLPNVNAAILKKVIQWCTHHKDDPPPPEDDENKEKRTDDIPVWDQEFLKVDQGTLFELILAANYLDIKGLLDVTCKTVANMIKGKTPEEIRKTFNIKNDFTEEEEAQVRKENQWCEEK
Assay Summary: FP competition vs fluorescein-IκB peptide
Starred links: 1 amine or outer side, 2 acyl side, 3 side chain; linkers in the order of their positions; H or OH if unused. Non-standard residues stand in square brackets, D forms with d. *: point of attachment. 3,4‑(MeO)2‑PhSO2 = COc1ccc(S(=O)(=O)*)cc1OC; Phe(3-Cl) = N[C@@H](Cc1cccc(Cl)c1)C(=O)O; Phe(3-F) = N[C@@H](Cc1cccc(F)c1)C(=O)O; Suc = O=C(CCC(=O)[*:2])[*:1]; Tos = Cc1ccc(S(=O)(=O)*)cc1; Ethoxycarbonyl = CCOC(=O)*; Bz = O=C(c1ccccc1)*
Property: pIC50; scope: individual binders
Convention used: pIC50 is expressed as -log10 of the molar concentration.

Worked examples follow.
Binder	pIC50
Suc-EGFFE-NH2 (SMILES NC(=O)[C@H](CCC(=O)O)NC(=O)[C@H](Cc1ccccc1)NC(=O)[C@H](Cc1ccccc1)NC(=O)CNC(=O)[C@H](CCC(=O)O)NC(=O)CCC(=O)O, also called UBP002) [Suc-EGFFE-NH2]	5.50
Ethoxycarbonyl-[dD]EG[Phe(3-F)]WE-NH2 (SMILES CCOC(=O)N[C@H](CC(=O)O)C(=O)N[C@@H](CCC(=O)O)C(=O)NCC(=O)N[C@@H](Cc1cccc(F)c1)C(=O)N[C@@H](Cc1c[nH]c2ccccc12)C(=O)N[C@@H](CCC(=O)O)C(N)=O, also called UBP023) [EtO(CO)-dEGF(3F)WE-NH2]	7.35
Tos-[dD]EG[Phe(3-Cl)]WE-NH2 (SMILES Cc1ccc(S(=O)(=O)N[C@H](CC(=O)O)C(=O)N[C@@H](CCC(=O)O)C(=O)NCC(=O)N[C@@H](Cc2cccc(Cl)c2)C(=O)N[C@@H](Cc2c[nH]c3ccccc23)C(=O)N[C@@H](CCC(=O)O)C(N)=O)cc1, also called UBP034) [Ts-dEGF(3Cl)WE-NH2]	8.00
Tos-[dD]DG[Phe(3-F)]WE-NH2 (SMILES Cc1ccc(S(=O)(=O)N[C@H](CC(=O)O)C(=O)N[C@@H](CC(=O)O)C(=O)NCC(=O)N[C@@H](Cc2cccc(F)c2)C(=O)N[C@@H](Cc2c[nH]c3ccccc23)C(=O)N[C@@H](CCC(=O)O)C(N)=O)cc1, also called UBP025) [Ts-dDGF(3F)WE-NH2]	7.60
Bz-[dD]EG[Phe(3-F)]WE-NH2 (also called UBP018) [Bz-dEGF(3F)WE-NH2]	6.76

Ask: What pIC50 value was documented for this binder, {3,4‑(MeO)2‑PhSO2}-[dD]EG[Phe(3-F)]WE-NH2 (SMILES COc1ccc(S(=O)(=O)N[C@H](CC(=O)O)C(=O)N[C@@H](CCC(=O)O)C(=O)NCC(=O)N[C@@H](Cc2cccc(F)c2)C(=O)N[C@@H](Cc2c[nH]c3ccccc23)C(=O)N[C@@H](CCC(=O)O)C(N)=O)cc1OC, also called UBP029) [3,4-(MeO)2-PhSO2-dEGF(3F)WE-NH2] ?
Reply: 7.38
